TT values recorded for Prothrombin (Rattus norvegicus) (UniProt P18292)

# compound, measure, result
rows = [
    ("NC(N)=NCCCC(NC(=O)[C@@H]1CC[C@H]2CN(C(=O)[C@@H](N)Cc3c[nH]c4ccccc34)CC(=O)N21)C(=O)c1nccs1 (stereo in doubt; 34)", "TT", "929 s"),
]

Shifting focus to the compound that follows.
Enquiry: API: value(readout= TT, system= Prothrombin (Rattus norvegicus) (UniProt P18292), query= N=C(N)NCCCC(NC(=O)[C@@H]1CC[C@H]2CN(C(=O)CCc3ccccc3C(F)(F)F)CC(=O)N21)C(=O)c1nccs1 (some centres not stated) )
Return: > 999 s

###

APTT values recorded for Prothrombin (Rattus norvegicus)
// units = s; emit number, no label

# molecule, study.target, APTT / s
records = [
    ("N=C(N)NCCCC(NC(=O)[C@@H]1CC[C@H]2CN(C(=O)CCc3ccccn3)CC(=O)N21)C(=O)c1nccs1 (stereo partly drawn)", "Prothrombin (Rattus norvegicus)", 44.2),
    ("NC(N)=NCCCC(NC(=O)[C@@H]1CC[C@H]2CN(C(=O)[C@@H](N)Cc3c[nH]c4ccccc34)CC(=O)N21)C(=O)c1nccs1 (stereo in doubt; 34)", "Prothrombin (Rattus norvegicus)", 188),
]

Enquiry: Looking for the measured APTT of N=C(N)NCCCC(NC(=O)[C@@H]1CC[C@H]2CN(C(=O)[C@@H](O)c3ccccc3)CC(=O)N21)C(=O)c1nccs1 (stereo in doubt; 29) , can you help?
Return: 49.1

###

# study.target: Prothrombin (Rattus norvegicus) (UniProt P18292)
Short version: APTT at least 80 s is true (1), less is false (0).

Take a look at these entries with their results.
# molecule, study.target, label.value
measured = [
    ("N=C(N)NCCCC(NC(=O)[C@@H]1CC[C@H]2CN(C(=O)CCC3CCCCC3)CC(=O)N21)C(=O)c1nccs1 (stereo not given in full)", "Prothrombin (Rattus norvegicus) (UniProt P18292)", "false (0)"),
    ("N=C(N)NCCCC(NC(=O)[C@@H]1CC[C@H]2CN(C(=O)[C@@H](O)Cc3ccccc3)CC(=O)N21)C(=O)c1nccs1 (stereo not given in full)", "Prothrombin (Rattus norvegicus) (UniProt P18292)", "true (1)"),
    ("N=C(N)NCCCC(NC(=O)[C@@H]1CC[C@H]2CN(C(=O)CCCc3ccccc3)CC(=O)N21)C(=O)c1nccs1 (stereo not given in full)", "Prothrombin (Rattus norvegicus) (UniProt P18292)", "true (1)"),
    ("N=C(N)NCCCC(NC(=O)[C@@H]1CC[C@H]2CN(C(=O)CCc3ccccc3)CC(=O)N21)C(=O)c1nccs1 (stereo not given in full)", "Prothrombin (Rattus norvegicus) (UniProt P18292)", "false (0)"),
    ("NC(N)=NCCCC(NC(=O)[C@@H]1CC[C@H]2CN(C(=O)[C@@H](N)Cc3ccc(F)cc3)CC(=O)N21)C(=O)c1nccs1 (stereo not given in full)", "Prothrombin (Rattus norvegicus) (UniProt P18292)", "false (0)"),
]

Enquiry: I'd appreciate it if you could say whether NC(N)=NCCCC(NC(=O)[C@@H]1CC[C@H]2CN(C(=O)[C@@H](N)Cc3ccc(O)cc3)CC(=O)N21)C(=O)c1nccs1 (stereo in doubt; 32) has APTT at least equal to 80 s.
Return: false (0)

Enquiry: I'd appreciate it if you could say whether COc1ccc(CCC(=O)N2CC(=O)N3[C@@H](CC[C@H]3C(=O)NC(CCCN=C(N)N)C(=O)c3nccs3)C2)cc1 (stereo not given in full) has APTT at least equal to 80 s.
Return: false (0)

Enquiry: I'd appreciate it if you could say whether N=C(N)NCCCC(NC(=O)[C@@H]1CC[C@H]2CN(CCCc3ccccc3)CC(=O)N21)C(=O)c1nccs1 (stereo not given in full) has APTT at least equal to 80 s.
Return: false (0)

Enquiry: I'd appreciate it if you could say whether N=C(N)NCCCC(NC(=O)[C@@H]1CC[C@H]2CN(C(=O)CCc3cccc4ccccc34)CC(=O)N21)C(=O)c1nccs1 (stereo not given in full) has APTT at least equal to 80 s.
Return: true (1)

Enquiry: I'd appreciate it if you could say whether N=C(N)NCCCC(NC(=O)[C@@H]1CC[C@H]2CN(C(=O)CCc3ccccc3C(F)(F)F)CC(=O)N21)C(=O)c1nccs1 (stereo not given in full) has APTT at least equal to 80 s.
Return: true (1)

###

# study.target: Prothrombin (Homo sapiens, UniProt P00734)
measure: Ki (nM)
// units = nM; emit number, no label

# annotated cases, reported Ki shown
# molecule, study.target, unit.annotation, Ki
data = [
    ("N=C(N)NCCCC(NC(=O)[C@@H]1CC[C@H]2CN(CCCc3ccccc3)CC(=O)N21)C(=O)c1nccs1 (some centres undefined)", "Prothrombin (Homo sapiens, UniProt P00734)", "nM", 17),
    ("N=C(N)NCCCC(NC(=O)[C@@H]1CC[C@H]2CN(C(=O)[C@@H](N)Cc3ccc(O)cc3)CC(=O)N21)C(=O)c1nccs1 (stereo in doubt; 31)", "Prothrombin (Homo sapiens, UniProt P00734)", "nM", 160),
    ("N=C(N)NCCCC(NC(=O)[C@@H]1CC[C@H]2CN(C(=O)COc3ccccc3)CC(=O)N21)C(=O)c1nccs1 (some centres undefined)", "Prothrombin (Homo sapiens, UniProt P00734)", "nM", 16),
    ("N=C(N)NCCCC(NC(=O)[C@@H]1CC[C@H]2CN(C(=O)CCOc3ccccc3)CC(=O)N21)C(=O)c1nccs1 (some centres undefined)", "Prothrombin (Homo sapiens, UniProt P00734)", "nM", 5),
    ("N=C(N)NCCCC(NC(=O)[C@@H]1CC[C@H]2CN(C(=O)[C@@H](N)Cc3ccc(O)cc3)CC(=O)N21)C(=O)c1nccs1 (stereo in doubt; 32)", "Prothrombin (Homo sapiens, UniProt P00734)", "nM", 18),
    ("N=C(N)NCCCC(NC(=O)[C@@H]1CC[C@H]2CN(C(=O)CCc3ccc(Cl)c(Cl)c3)CC(=O)N21)C(=O)c1nccs1 (some centres undefined)", "Prothrombin (Homo sapiens, UniProt P00734)", "nM", 0.106),
]

Enquiry: API: value(readout= Ki, system= Prothrombin (Homo sapiens, UniProt P00734), query= NC(N)=NCCCC(NC(=O)[C@@H]1CC[C@H]2CN(C(=O)[C@@H](N)Cc3c[nH]c4ccccc34)CC(=O)N21)C(=O)c1nccs1 (stereo in doubt; 34) )
Return: 0.96

Enquiry: API: value(readout= Ki, system= Prothrombin (Homo sapiens, UniProt P00734), query= NC(N)=NCCCC(NC(=O)[C@@H]1CC[C@H]2CN(C(=O)[C@@H](N)Cc3c[nH]c4ccccc34)CC(=O)N21)C(=O)c1nccs1 (stereo in doubt; 33) )
Return: 75.3

Enquiry: API: value(readout= Ki, system= Prothrombin (Homo sapiens, UniProt P00734), query= N=C(N)NCCCC(NC(=O)[C@@H]1CC[C@H]2CN(C(=O)CCCc3ccccc3)CC(=O)N21)C(=O)c1nccs1 (some centres undefined) )
Return: 1.2

Enquiry: API: value(readout= Ki, system= Prothrombin (Homo sapiens, UniProt P00734), query= N=C(N)NCCCC(NC(=O)[C@@H]1CC[C@H]2CN(C(=O)Cc3ccccc3)CC(=O)N21)C(=O)c1nccs1 (some centres undefined) )
Return: 2.5

Enquiry: API: value(readout= Ki, system= Prothrombin (Homo sapiens, UniProt P00734), query= N=C(N)NCCCC(NC(=O)[C@@H]1CC[C@H]2CN(C(=O)CCc3ccccn3)CC(=O)N21)C(=O)c1nccs1 (some centres undefined) )
Return: 3

Enquiry: API: value(readout= Ki, system= Prothrombin (Homo sapiens, UniProt P00734), query= N=C(N)NCCCC(NC(=O)[C@@H]1CC[C@H]2CN(C(=O)CCC3CCCCC3)CC(=O)N21)C(=O)c1nccs1 (some centres undefined) )
Return: 24

Enquiry: API: value(readout= Ki, system= Prothrombin (Homo sapiens, UniProt P00734), query= N=C(N)NCCCC(NC(=O)[C@@H]1CC[C@H]2CN(C(=O)CCc3ccc4ccccc4c3)CC(=O)N21)C(=O)c1nccs1 (some centres undefined) )
Return: 0.5

Enquiry: API: value(readout= Ki, system= Prothrombin (Homo sapiens, UniProt P00734), query= Cc1ccc(CCC(=O)N2CC(=O)N3[C@@H](CC[C@H]3C(=O)NC(CCCN=C(N)N)C(=O)c3nccs3)C2)cc1 (some centres undefined) )
Return: 0.5

###

# study.target: Prothrombin (Rattus norvegicus) (UniProt P18292)
measure: TT (s)
// units = s; emit number, no label

# compound, study.target, recorded.number
data = [
    ("N=C(N)NCCCC(NC(=O)[C@@H]1CC[C@H]2CN(C(=O)CCc3ccccc3)CC(=O)N21)C(=O)c1nccs1 (stereo partly drawn)", "Prothrombin (Rattus norvegicus) (UniProt P18292)", 381),
    ("N=C(N)NCCCC(NC(=O)[C@@H]1CC[C@H]2CN(CCCc3ccccc3)CC(=O)N21)C(=O)c1nccs1 (stereo partly drawn)", "Prothrombin (Rattus norvegicus) (UniProt P18292)", 122),
]

Enquiry: API: value(readout= TT, system= Prothrombin (Rattus norvegicus) (UniProt P18292), query= NC(N)=NCCCC(NC(=O)[C@@H]1CC[C@H]2CN(C(=O)[C@@H](N)Cc3ccc(F)cc3)CC(=O)N21)C(=O)c1nccs1 (stereo partly drawn) )
Return: 557
